# ASSAYED_TARGET: hGcgR (Homo sapiens)
# Sequence (P47871 26-477): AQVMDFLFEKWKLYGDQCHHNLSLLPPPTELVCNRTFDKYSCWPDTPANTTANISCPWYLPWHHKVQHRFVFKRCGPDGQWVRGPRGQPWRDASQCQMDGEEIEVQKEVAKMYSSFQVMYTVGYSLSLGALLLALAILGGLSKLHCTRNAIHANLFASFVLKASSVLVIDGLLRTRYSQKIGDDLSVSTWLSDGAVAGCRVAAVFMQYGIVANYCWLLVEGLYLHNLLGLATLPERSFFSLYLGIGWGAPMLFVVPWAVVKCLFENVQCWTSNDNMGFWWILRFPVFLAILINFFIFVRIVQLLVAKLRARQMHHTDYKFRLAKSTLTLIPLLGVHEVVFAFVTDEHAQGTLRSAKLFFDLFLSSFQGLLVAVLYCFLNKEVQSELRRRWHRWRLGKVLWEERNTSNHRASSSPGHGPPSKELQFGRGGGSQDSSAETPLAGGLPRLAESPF
# EXPERIMENT_SUMMARY: Functional cAMP activation in the presence of 0.1% casein (no HSA);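 also: intracellular cAMP rise after 30 min at 37 °C, read by HTRF against a cAMP standard curve, scaled from buffer only (0%) to maximal control ligand response (100%)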
# Format: cell-based
# STATED_CONDITIONS: in the presence of 0.1% casein (no HSA); geometric mean; read-out: Relative cAMP EC50, hGcgR
pEC50: −log10 of the molar value. Starred links: 1 amine or outer side, 2 acyl side, 3 side chain; linkers in the order of their positions; H or OH if unused. Non-standard residues stand in square brackets, D forms with d. Groups on a side chain read outwards from the residue. *: point of attachment. C20 diacid = O=C(O)CCCCCCCCCCCCCCCCCCC(=O)*; C18 diacid = O=C(O)CCCCCCCCCCCCCCCCC(=O)*; αMePhe(2-F) = C[C@](N)(Cc1ccccc1F)C(=O)O; γGlu = O=C(O)[C@H](CCC(=O)[*:2])N[*:1]; NMeY = CN[C@@H](Cc1ccc(O)cc1)C(=O)O; αMe4Pal = C[C@](N)(Cc1ccncc1)C(=O)O; αMeY = C[C@](N)(Cc1ccc(O)cc1)C(=O)O; αMeF = C[C@](N)(Cc1ccccc1)C(=O)O; 4Pal = N[C@@H](Cc1ccncc1)C(=O)O; αMeL = CC(C)C[C@](C)(N)C(=O)O; Orn = NCCC[C@H](N)C(=O)O; AEEA = NCCOCCOCC(=O)O; Aib = CC(C)(N)C(=O)O
OBSERVABLE: pEC50

>>> numeric_result("H-Y[Aib]QGTFTSD[4Pal]S[Orn][αMeL]LD[Orn]K([γGlu-γGlu-γGlu-C18 diacid])AQ[αMe4Pal]AFIEYLIE[Aib]GPSSGAPPPSGSE-NH2 [Example 943]")
8.18
>>> numeric_result("H-Y[Aib]QGT[αMePhe(2-F)]TSDYSILLDKIAQK([AEEA-γGlu-C20 diacid])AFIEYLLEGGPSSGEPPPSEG-NH2 [Example 293]")
8.40
>>> numeric_result("H-Y[Aib]QGTFTSD[4Pal]SK[αMeL]LDKK([AEEA-γGlu-C18 diacid])AQ[Aib]AFIEYLIE[Aib]GPSSGAPPPSGS-NH2 [Example 801]")
8.26
>>> numeric_result("H-Y[Aib]QGTFTSD[4Pal]S[Orn][αMeL]LD[Orn]K([γGlu-γGlu-C18 diacid])AQ[αMe4Pal]QFIEYLLAGGPSSGAPPPSGSEE-NH2 [Example 1002]")
8.72
>>> numeric_result("H-Y[Aib]QGTFTSD[4Pal]SQ[αMeL]LDKK([AEEA-γGlu-C18 diacid])AQ[αMe4Pal]AFIE[αMeY]LIEGGPSSGAPPPSGS-NH2 [Example 844]")
8.55
>>> numeric_result("H-[NMeY][Aib]QGT[αMeF]TSDYSSLLDKIAAK([AEEA-AEEA-γGlu-C20 diacid])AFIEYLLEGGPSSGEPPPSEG-NH2 [Example 297]")
8.49

Values compiled from patent US20240270821A1.
